biological target: Metabotropic glutamate receptor 8 (Rattus norvegicus) (UniProt P70579); assay: mGluR8 Gi/Go-coupled signaling modulation – cell-based, rat, thallium flux, HTS, primary screen (AID 488969); settings: HEK293 rat mGluR8, GIRK thallium flux, FluoZin2; at 10 µM; stronger effect = higher value; submaximal glutamate (EC20) added with thallium
Sequence (P70579 whole entry, looked up): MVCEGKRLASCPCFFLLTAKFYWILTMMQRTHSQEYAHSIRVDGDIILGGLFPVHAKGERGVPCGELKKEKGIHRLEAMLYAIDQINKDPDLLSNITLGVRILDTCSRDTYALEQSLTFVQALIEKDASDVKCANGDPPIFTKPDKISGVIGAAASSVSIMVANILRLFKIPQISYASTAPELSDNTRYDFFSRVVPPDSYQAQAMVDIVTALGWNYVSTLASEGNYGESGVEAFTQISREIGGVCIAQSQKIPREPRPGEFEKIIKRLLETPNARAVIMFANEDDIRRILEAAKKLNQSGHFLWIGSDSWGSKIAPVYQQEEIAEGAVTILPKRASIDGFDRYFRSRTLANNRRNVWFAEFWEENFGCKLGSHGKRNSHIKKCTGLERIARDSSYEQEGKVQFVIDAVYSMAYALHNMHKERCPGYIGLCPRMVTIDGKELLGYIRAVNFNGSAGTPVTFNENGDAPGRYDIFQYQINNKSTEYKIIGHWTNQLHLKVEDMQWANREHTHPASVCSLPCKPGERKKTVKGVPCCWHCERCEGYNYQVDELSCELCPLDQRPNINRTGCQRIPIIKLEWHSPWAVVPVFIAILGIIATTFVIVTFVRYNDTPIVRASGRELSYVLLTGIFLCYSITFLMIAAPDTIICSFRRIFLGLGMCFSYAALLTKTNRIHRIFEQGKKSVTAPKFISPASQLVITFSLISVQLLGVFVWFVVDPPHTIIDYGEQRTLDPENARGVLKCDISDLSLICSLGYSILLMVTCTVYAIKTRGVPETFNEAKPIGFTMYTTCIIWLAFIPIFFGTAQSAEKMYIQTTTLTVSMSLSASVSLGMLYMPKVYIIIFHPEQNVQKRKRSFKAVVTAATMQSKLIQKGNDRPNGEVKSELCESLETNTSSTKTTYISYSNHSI
Whole data set: some 110,000 compounds, median “z-score” near -0.1, cut for the highest 2% near 2. The sample holds the highest values, similar compounds and a random draw of the others, so the mix is not that of the screen.
Binned z-score; ranges: 1 = under -0.3, 2 = from -0.3 up to 0.4, 3 = 0.4 and over

{"molecule": "Cc1nc(CN2CCOCC2)cc(=O)[nH]1", "cat": 2}
{"molecule": "CCC(c1nnnn1CCOC)N(Cc1ccc(C)cc1)Cc1cc2cc(OC)ccc2[nH]c1=O (centres undefined)", "cat": 2}
{"molecule": "O=[N+]([O-])c1ccc(N2CCCCC2)cc1NCCOc1ccccc1", "cat": 2}
{"molecule": "CCOC(=O)C1CCN(C(=O)COc2ccc(Cl)cc2Cl)CC1", "cat": 1}
{"molecule": "CCC(c1nnnn1Cc1ccc(OC)cc1)N(CCCO)Cc1cc2cc3c(cc2[nH]c1=O)OCO3 (centres undefined)", "cat": 3}
{"molecule": "Cc1ccccc1N=Nc1c(C)[nH]n(C(N)=S)c1=O", "cat": 3}
{"molecule": "CN(C1CCCCC1)S(=O)(=O)c1ccc2c(c1)c(=O)c(C(=O)N1CCc3ccccc3C1)cn2C", "cat": 1}
{"molecule": "CCOC(=O)c1cccc(NC(=O)C2CCCN2S(=O)(=O)c2cccc3cccnc23)c1 (centres undefined)", "cat": 2}
{"molecule": "CCOC(=O)CN1NC2(CCC(C)CC2)NC1=S (centres undefined)", "cat": 1}
{"molecule": "CCOC(=O)N1CCN(C(=O)CN(c2cc(C(F)(F)F)ccc2Cl)S(C)(=O)=O)CC1", "cat": 3}
{"molecule": "Cn1c(=O)[nH]c(=O)c2c1nc(Br)n2CCCSc1nc2ccccc2o1", "cat": 1}
{"molecule": "COc1ccc(CNC(=O)CCc2c(C)nc3ncnn3c2C)cc1", "cat": 3}
{"molecule": "CCOCCOc1nc2c(c(=O)n(C)c(=O)n2C)n1CCc1ccccc1", "cat": 2}
{"molecule": "CCOC(=O)c1cnc2ccc(C)cc2c1Sc1ccc(F)cc1", "cat": 2}

###

target: Metabotropic glutamate receptor 8 (Rattus norvegicus) (UniProt P70579); assay: mGluR8 Gi/Go-coupled signaling modulation – cell-based, rat, thallium flux, HTS, primary screen (AID 488969); conditions: HEK293 rat mGluR8, GIRK thallium flux, FluoZin2; at 10 µM; stronger effect = higher value; submaximal glutamate (EC20) added with thallium
Whole data set: some 110,000 compounds, median “z-score” near -0.1, cut for the highest 2% near 2. This is one part of a sample in which the highest values are shown more often than they occur.
parameter-measured: z-score

{"input-smiles": "O=C(NC(=S)Nc1cccc(NC(=O)c2ccccc2)c1)c1cccc([N+](=O)[O-])c1", "recorded-result": -0.0765}
{"input-smiles": "Cc1cc(C(=O)COc2nncc3ccccc23)c(C)n1C", "recorded-result": 0.0547}
{"input-smiles": "Cc1cc(C(=O)COc2ncnc3sccc23)c(C)n1C", "recorded-result": 2.04}

###

target: Metabotropic glutamate receptor 8 (Rattus norvegicus); assay: mGluR8 Gi/Go-coupled signaling modulation – cell-based, rat, thallium flux, HTS, primary screen (AID 488969); conditions: HEK293 rat mGluR8, GIRK thallium flux, FluoZin2; at 10 µM; stronger effect = higher value; submaximal glutamate (EC20) added with thallium
In all, about 110,000 compounds were measured (“z-score”: median about -0.1, highest 2% from about 2 on). The sample holds the highest values, similar compounds and a random draw of the others, so the mix is not that of the screen.
Assign class by z-score: not lower than -0.2 means Condition met; lower than -0.2 means Condition not met.

{"molecule": "Cn1c2ccccc2c(=O)c2c(=O)n(-c3ccccc3)c(C3CCCCC3)nc21", "cat": "Condition not met"}
{"molecule": "C/C(=N/NC(=O)c1ccoc1C)C12CC3CC(CC(C3)C1)C2", "cat": "Condition met"}
{"molecule": "CC/C(=N\\NC(=O)c1ccccc1Cl)c1ccc(Br)s1", "cat": "Condition met"}
{"molecule": "COc1ccccc1C(=O)Nc1ccc(C)cc1C(=O)c1ccccc1", "cat": "Condition not met"}
{"molecule": "COc1ccc2c(C)cc(=O)[nH]c2c1", "cat": "Condition met"}
{"molecule": "O=C(CSc1nc2ccccc2s1)NNC(=O)Nc1ccc(Cl)c(Cl)c1", "cat": "Condition met"}
{"molecule": "N#Cc1cccc(NC(=O)c2ccccc2C(=O)O)c1", "cat": "Condition met"}
{"molecule": "CCOC(=O)C1C(=O)Nc2nc3ccccc3n2C1C(C)C (configuration not stated)", "cat": "Condition not met"}
{"molecule": "CSc1nc(N2CCCC2)c2c(c1C#N)CC(C)(C)OC2", "cat": "Condition not met"}
{"molecule": "COc1ccccc1NC(=O)c1ccc(NC(=O)COC(=O)CC(NC(=O)c2ccccc2Cl)c2ccccc2)cc1 (configuration not stated)", "cat": "Condition met"}
{"molecule": "O=C(NCc1cccs1)c1nc2c(nnn2Cc2ccc(F)cc2)c(=O)[nH]1", "cat": "Condition not met"}
{"molecule": "CC(C)c1nc(N2CCOCC2)c(C#N)c2c1CCC2", "cat": "Condition met"}
{"molecule": "COCc1cc(=O)[nH]c(Nc2nc(C)c3ccccc3n2)n1", "cat": "Condition not met"}
{"molecule": "COc1cc(S(=O)(=O)N(Cc2ccccn2)Cc2ccco2)ccc1-n1cnnn1", "cat": "Condition not met"}
{"molecule": "CC(C)c1nc(N2CCCC2)c(C#N)c2c1CCCC2", "cat": "Condition met"}
{"molecule": "CC(Oc1ccccc1)C(=O)NC1CCN(Cc2ccccc2)CC1 (configuration not stated)", "cat": "Condition not met"}
{"molecule": "CCOc1ccc(NC(=O)Nc2cccs2)cc1", "cat": "Condition met"}
{"molecule": "Brc1ccc2[nH]c3c(N4CCc5ccccc5C4)ncnc3c2c1", "cat": "Condition met"}
{"molecule": "Cc1ccc(C)c(NC(=O)c2cnn3ccccc23)c1", "cat": "Condition met"}
{"molecule": "CCOc1ccc(NC(=O)C23CC4CC(C2)CC(c2ccccc2)(C4)C3)cc1", "cat": "Condition not met"}
{"molecule": "CCOc1ccc(NC(=O)Nc2ccc(N(C)C(C)=O)cc2)cc1", "cat": "Condition met"}
{"molecule": "CCCCc1nc(N2CCOCC2)c(C#N)c2c1COC(C)(C)C2", "cat": "Condition not met"}
{"molecule": "COC(=O)c1cccc(NC(=O)NC23CC4CC(CC(C4)C2)C3)c1", "cat": "Condition met"}
{"molecule": "O=C(O)/C=C/C(=O)Nc1ccccc1C(=O)Nc1ccccc1", "cat": "Condition met"}
{"molecule": "CNC(=S)N/N=C/c1ccc(C(C)C)cc1", "cat": "Condition met"}
{"molecule": "CSc1nc(N2CCOCC2)c2c(c1C#N)CC(C)(C)OC2", "cat": "Condition met"}
{"molecule": "CCOc1ccc(NC(=O)Nc2ccc3nccnc3c2)cc1", "cat": "Condition met"}

###

The entries below come with measured z-score values attached.
target: Metabotropic glutamate receptor 8 (Rattus norvegicus) (UniProt P70579); assay: mGluR8 Gi/Go-coupled signaling modulation – cell-based, rat, thallium flux, HTS, primary screen (AID 488969); settings: HEK293 rat mGluR8, GIRK (G protein-gated inwardly rectifying potassium channel) thallium flux, FluoZin2; at 10 µM; stronger effect = higher value; submaximal glutamate (EC20) added with thallium
Whole data set: some 110,000 compounds, median “z-score” near -0.1, cut for the highest 2% near 2. This excerpt belongs to a sample that is enriched for the highest values.

{"compound": "COc1ccc(C(C[N+](=O)[O-])c2c(C)[nH]c3ccccc23)cc1OC (centres undefined)", "z-score": -2.31}
{"compound": "Cc1ccc(S(=O)(=O)NCCC(=O)NC2CCCC2)cc1", "z-score": 0.757}
{"compound": "CCn1c(-c2ccc(C)cc2)n[nH]c1=S", "z-score": -0.192}
{"compound": "COc1cccc(N2CCN(c3c4c(nc5ncnn35)CCC4)CC2)c1", "z-score": 5.19}
{"compound": "Cc1ccc(C)c(OCC(O)CN2C(C)CCCC2C)c1 (centres undefined)", "z-score": 3.05}
{"compound": "CCOCC(=O)Nc1nnc(Cc2ccc(OC)cc2)s1", "z-score": -0.115}
{"compound": "COc1ccc(OC)c(N(CC(=O)Nc2ccc3c(c2)OCO3)S(=O)(=O)c2ccccc2)c1", "z-score": -0.348}
{"compound": "O=[N+]([O-])c1cccc(/C=C/c2nc(C=Nc3ccc4ccccc4c3)c(O)o2)c1", "z-score": -0.0456}
{"compound": "CCOC(=O)c1nn(-c2ccc(F)cc2)c2nc(Nc3ccccc3)cc(=O)n12", "z-score": -0.123}
{"compound": "C=CCn1c(CCNC(=O)c2ccccc2F)nnc1SCC(=O)Nc1nc(C)cs1", "z-score": 0.0314}
{"compound": "COc1cccc2c1OC[C@@H](CO)[C@H]2N(C)C(=O)Nc1ccccc1", "z-score": 6.33}
{"compound": "COc1ccc(NC(=S)N2CCN(C/C=C/c3ccccc3)CC2)cc1", "z-score": -0.821}
{"compound": "O=C(CCl)N1c2ccccc2OCC1c1ccccc1 (centres undefined)", "z-score": -0.994}
{"compound": "CCn1c(-c2cccc(Br)c2)n[nH]c1=S", "z-score": 2.35}
{"compound": "O=C(O)c1ccc(-c2nc(-c3ccccc3)c(-c3ccccc3)[nH]2)cc1", "z-score": -1.56}
{"compound": "S=c1[nH]nc(-c2ccncc2)n1Cc1ccco1", "z-score": -0.198}
{"compound": "O=C(NN=c1c(=O)c2ccccc2c1=O)c1ccccc1", "z-score": 6.47}
{"compound": "CC1CCc2c(sc(NC(=O)COC(=O)c3ccccc3NCc3ccco3)c2C#N)C1 (centres undefined)", "z-score": -0.152}
{"compound": "CCOc1cc(C(=O)OCC(=O)c2c(N)n(C)c(=O)n(C)c2=O)cc(OCC)c1OCC", "z-score": -0.112}
{"compound": "CCCCNC(=O)CCCCCNS(=O)(=O)c1ccc(OC)cc1", "z-score": 1.14}
{"compound": "COc1cc(NC(=O)c2cc3sccc3n2C)cc(OC)c1", "z-score": -0.0259}
{"compound": "CCOC(=O)N1CCN(CC(=O)Nc2ccc(C)c(Br)c2)CC1", "z-score": -0.241}
{"compound": "N#Cc1c(N)nc2c3c(sc(=N)c2c1N)NC(=O)CC3c1ccccc1 (centres undefined)", "z-score": -0.0395}
{"compound": "COc1cccc(CC(NC(C)=O)C(=O)NC2CCN(c3c4c(nc5ncnn35)CCC4)CC2)c1 (centres undefined)", "z-score": 0.172}
